Record type: Ki measurement. Applies to: σ1-receptor (Cavia porcellus, UniProt Q60492)
Structures can show the parent of a compound that is named as a salt.
OUTCOME_MEASURE: Ki (nM)

1: Fc1ccc(CN2CCn3c(cnc3Nc3ccc(F)cn3)C2)cc1
2: Oc1cccc(Nc2ncc3n2CCN(CCc2ccccc2)C3)c1
3: c1ccc(Nc2ncc3n2CCN(CC2CCOCC2)C3)cc1
4: c1ccc(Cc2ncc3n2CCN(CC2CCCCC2)C3)cc1 [Example 28, trifluoroacetate]
5: Fc1ccc(Cc2ncc3n2CCN(CC2CCCCC2)C3)cc1 [Example 30, hydrochloride]
Qu. Arrange the 5 compounds by rising Ki, starting with the smallest. Reply with the labels, ordered as the question asks.
Ans. 5, 4, 1, 2, 3
(5: 22 nM, 4: 39 nM, 1: 67 nM, 2: 168 nM, 3: 258 nM)
